molecular target: T1, human CD4, cell-expressed (human, UniProt P01730 26-458); assay: flow cytometry on MOLM-13 cells (CD4, no IL12R or IL23R), lower left panel
T1 construct: whole, on cells
measured-metric: EC50 (read off the curve)

- binder: "CD4#8-35GS-IL12Rb1#30 (bispecific antibody, also called BI#40; T023200040) EVQLVESGGGSVQPGGSLTLSCGTSGRTFNVMGWFRQAPGKEREFVAAVRWSSTGIYYTQYADSVKSRFTISRDNAKNTVYLEMNSLKPEDTAVYYCAADTYNSNPARWDGYDFRGQGTLVTVSSGGGGSGGGGSGGGGSGGGGSGGGGSGGGGSGGGGSEVQLVESGGGLVQTGGSLRLSCAASGRTPRLVAMGWFRQTPGKEREFVGEIILSKGFTYYADSVKGRFTISRVNAKNTITMYLQMNSLKSEDTAVYYCAGRQNWSGSPARTNEYEYWGQGTLVTVSS"
  EC50 (read off the curve): "~1 nM"
- binder: "CD4#8-35GS-IL12Rb1#31 (bispecific antibody, also called BI#41; T023200041) EVQLVESGGGSVQPGGSLTLSCGTSGRTFNVMGWFRQAPGKEREFVAAVRWSSTGIYYTQYADSVKSRFTISRDNAKNTVYLEMNSLKPEDTAVYYCAADTYNSNPARWDGYDFRGQGTLVTVSSGGGGSGGGGSGGGGSGGGGSGGGGSGGGGSGGGGSEVQLVESGGGLVQTGGSLRLSCAASGRTPSIIAMGWFRQTPGKEREFVGEIILSKGFTYYADSVKGRFTISRANAKNTITMYLQMNSLKSEDTAVYYCAARQNWSGNPTRTNEYEYWGQGTLVTVSS"
  EC50 (read off the curve): "~1 nM"

Lab note: IL12Rb1#31-35GS-CD4#8 (bispecific antibody, also called BI#47; T023200047) EVQLVESGGGLVQTGGSLRLSCAASGRTPSIIAMGWFRQTPGKEREFVGEIILSKGFTYYADSVKGRFTISRANAKNTITMYLQMNSLKSEDTAVYYCAARQNWSGNPTRTNEYEYWGQGTLVTVSSGGGGSGGGGSGGGGSGGGGSGGGGSGGGGSGGGGSEVQLVESGGGSVQPGGSLTLSCGTSGRTFNVMGWFRQAPGKEREFVAAVRWSSTGIYYTQYADSVKSRFTISRDNAKNTVYLEMNSLKPEDTAVYYCAADTYNSNPARWDGYDFRGQGTLVTVSS gave EC50 (read off the curve) of ~1 nM
